pIC50: −log10 of the molar value.
Compiled literature pIC50, tested on Proto-oncogene tyrosine-protein kinase Src (Homo sapiens, UniProt P12931).
resultType: pIC50

* CC(C)(C)OC(=O)N1C[C@H](n2cc(-c3ccccc3)c3c(N)ncnc32)C[C@@H]1CO | 5.70
* Nc1ncnc2c1c(-c1ccc(Oc3ccccc3)cc1)cn2C1CCCC1 | 7.15
* COc1cccc(-c2cn(-c3ccc(C(=O)NCCCP(=O)(O)CP(=O)(O)O)cc3)c3ncnc(N)c23)c1 | 6.60

* * *

Compiled literature pIC50, tested on Proto-oncogene tyrosine-protein kinase Src (Homo sapiens, UniProt P12931).
pIC50: −log10 of the molar value.
resultType: pIC50

- COc1cc(Nc2c(C#N)cnc3cc(OC)c(OC)cc23)ccc1Cl: 6.92
- c1ccc(Nc2nc(N3CCOCC3)nc3[nH]cnc23)cc1: 6.12
- Cc1ccn(-c2ccc(C(F)(F)F)cc2)c(=O)c1-c1ccc2nc(N)ncc2c1: 6.12
- O=S(=O)(Cc1ccccc1)n1c2cc(O)c(O)cc2c2ccc(O)c(O)c21: 4.85
- COc1ccc(C(c2c[nH]c3ccc(OC)cc23)N(C)c2ccccc2)cc1 (stereo unspecified): 4.00
